Assay type: in vivo, human
Details: human, plasma, po, 150 mg
Value Type: half-life (h)

Input: Given Cn1c(=O)c2c(ncn2C)n(C)c1=O , respond with its half-life.
Output: 8.87

Input: Given Cn1c(=O)[nH]c2ncn(C)c2c1=O , respond with its half-life.
Output: 12.2

###

Format: in vivo, human
Settings: human, plasma, po
Value Type: AUC(0-inf) (ng·h/mL)

[P] Cn1c(=O)c2c(ncn2C)n(C)c1=O [Caffeine]
[Q] Cn1c(=O)[nH]c2ncn(C)c2c1=O [Paraxanthine, 1,7‐dimethylxanthine]
Input: When P and Q are compared, which has the higher number for AUC(0-inf)? In your reply, give the label of the chosen option.
Output: P

###

Format: in vivo, human
Conditions: human, plasma, po, 150 mg
Value Type: Tmax (h)

[1] Cn1c(=O)[nH]c2ncn(C)c2c1=O
[2] Cn1c(=O)c2c(ncn2C)n(C)c1=O
Input: When 1 and 2 are compared, which has the higher number for Tmax? In your reply, give the label of the chosen option.
Output: 1
(1: 7 h, 2: 1 h)

###

Assay type: in vivo, human
Details: human, plasma, po
Value Type: Tmax (h)

[1] Cn1c(=O)[nH]c2ncn(C)c2c1=O
[2] Cn1c(=O)c2c(ncn2C)n(C)c1=O
Input: When 1 and 2 are compared, which has the higher number for Tmax? In your reply, give the label of the chosen option.
Output: 1
(1: 7 h, 2: 1 h)

Values from paper PMC6853154
